target: METTL3 WT;METTL14 WT (Homo sapiens;Homo sapiens, UniProt Q86U44;Q9HCE5 1-580;1-456, |); assay: fluorescence polarization; range given for A-RNA and m6A-RNA together; m6A-RNA said to bind more tightly; FP: 10 mM HEPES pH 7.5, 50 mM KCl, 5 nM RNA; SPR: 10 mM HEPES pH 7.5, 150 mM KCl, 0.05% P20, 25 C; 2-Ap: 50 mM Tris pH 8.0, 10 mM MgCl2, 0.5 uM RNA, read at 37; conditions: protein: recombinant;recombinant; tags: His-tag removed by TEV;; copies: 1;1; label: 5' fluorescein; predicted bulged stem-loop
Sequence (Q86U44 whole entry, chain 1 of 2): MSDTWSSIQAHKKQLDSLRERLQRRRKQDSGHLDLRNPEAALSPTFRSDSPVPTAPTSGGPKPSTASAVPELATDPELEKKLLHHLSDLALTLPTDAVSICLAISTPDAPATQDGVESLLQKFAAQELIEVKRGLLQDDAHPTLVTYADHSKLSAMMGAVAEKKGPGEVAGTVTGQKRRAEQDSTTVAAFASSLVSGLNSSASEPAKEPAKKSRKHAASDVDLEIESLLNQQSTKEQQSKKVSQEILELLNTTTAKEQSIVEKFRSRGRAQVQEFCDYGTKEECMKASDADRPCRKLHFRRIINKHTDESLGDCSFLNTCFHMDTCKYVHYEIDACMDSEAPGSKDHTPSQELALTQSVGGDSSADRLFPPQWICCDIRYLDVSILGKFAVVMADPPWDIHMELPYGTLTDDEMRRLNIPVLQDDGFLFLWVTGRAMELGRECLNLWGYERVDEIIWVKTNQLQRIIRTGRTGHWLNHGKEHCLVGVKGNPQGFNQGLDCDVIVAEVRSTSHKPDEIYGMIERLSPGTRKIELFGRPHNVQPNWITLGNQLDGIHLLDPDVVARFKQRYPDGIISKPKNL
Sequence (Q9HCE5 whole entry, chain 2 of 2): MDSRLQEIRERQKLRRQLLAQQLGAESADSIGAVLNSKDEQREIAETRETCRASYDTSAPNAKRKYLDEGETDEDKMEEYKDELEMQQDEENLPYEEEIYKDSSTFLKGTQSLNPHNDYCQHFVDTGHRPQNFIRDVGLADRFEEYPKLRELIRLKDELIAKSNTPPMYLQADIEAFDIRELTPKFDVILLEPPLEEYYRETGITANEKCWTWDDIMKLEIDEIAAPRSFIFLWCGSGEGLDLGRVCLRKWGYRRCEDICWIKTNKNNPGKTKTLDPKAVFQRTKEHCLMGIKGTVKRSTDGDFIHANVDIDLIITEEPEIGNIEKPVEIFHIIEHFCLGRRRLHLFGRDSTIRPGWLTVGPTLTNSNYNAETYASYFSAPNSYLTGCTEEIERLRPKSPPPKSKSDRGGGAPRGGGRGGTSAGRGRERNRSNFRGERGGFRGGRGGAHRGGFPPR
PROPERTY NAME: Kd

- GCCUAGUAGCAGAGAGGACUGCUCCUUGGU (structured_RNA, m6A at position 18) [Fl-NEAT2*-m6A (m6A-RNA)]: ~13.4 nM

meta.source: paper PMC10441475
